test system: K4 kissing-loop RNA reporter; assay: apparent KD of K4 kissing-loop reporter; higher = weaker reporter binding; conditions: Eterna round: R107; input ligand: arginine 13.2 mM;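 further: bound reporter read as fluorescence of individual clusters on recovered sequencing chips by microscopy, with normalized cluster intensities fitted with a binding model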
measured.attribute: apparent KD of K4 kissing-loop reporter (µM)
Expressed in µM, but write only the number.

These recorded examples may help you get a feel for the data.
                             sequence_input  number
0  CGCAAGCAGCCAGUGAUGUUGGCCGCCUUGCGAGGACCGGUACGGCCGCCACUCGAAGGCGGCUAGUAGUAGUCUGUCUAACGGA [KL-XTryp-A16]   0.107
1  AGGCGGCAUGAUUGACUGAAAAGAAAUCAACGAGGACCGGUACGGCCGCCACUCGAACACCAGUGAUGUUGGUAUGGGAUAACCC [Exclusion Tryptophan A GF 19]   0.188
2  AGACUACUGAUAGGAUAUAACAUACUAGCUCGUAUACCAAAGGUAUACGAGCACCUUCUAGUGAUGUUAGAAGGGUCGGUAGUCA [Omei KL FMN B Exc B v3]   0.104
3  AACCGCCAGUCGGCCGCCACUCACAGCAGUGAUGUUGCUGAAAAUCUAAAAGAGUGAUGUUCUUAGAGGACCGGGACUCCAGGCG [Same State Tryptophan B GF 5]  0.0769
4  CCCUAAAUAUGCAGUGAUGUUGCAACUGAUACCAGUAUCGAAAGAUACCCUUGGCAGCGGAAAACCGCUACGUAAUUUAAUAGGG [Ex Theophylline A K4 20]   0.393

Next sequence, apparent KD of K4 kissing-loop reporter to be filled in.
Any idea what apparent KD of K4 kissing-loop reporter was measured for CGCAAUCGAACUGAUACCAGUCAUAAUGGCUGAGAAGCACGAGUGAUGUUCGUAACGAAUGACCCUUGGCAGCAGUUCGAUUGCG [Theo B SS t8] ? 0.807
